- tested target: recombinant human C-proteinase (Homo sapiens)
- Sequence (P13497 121-986): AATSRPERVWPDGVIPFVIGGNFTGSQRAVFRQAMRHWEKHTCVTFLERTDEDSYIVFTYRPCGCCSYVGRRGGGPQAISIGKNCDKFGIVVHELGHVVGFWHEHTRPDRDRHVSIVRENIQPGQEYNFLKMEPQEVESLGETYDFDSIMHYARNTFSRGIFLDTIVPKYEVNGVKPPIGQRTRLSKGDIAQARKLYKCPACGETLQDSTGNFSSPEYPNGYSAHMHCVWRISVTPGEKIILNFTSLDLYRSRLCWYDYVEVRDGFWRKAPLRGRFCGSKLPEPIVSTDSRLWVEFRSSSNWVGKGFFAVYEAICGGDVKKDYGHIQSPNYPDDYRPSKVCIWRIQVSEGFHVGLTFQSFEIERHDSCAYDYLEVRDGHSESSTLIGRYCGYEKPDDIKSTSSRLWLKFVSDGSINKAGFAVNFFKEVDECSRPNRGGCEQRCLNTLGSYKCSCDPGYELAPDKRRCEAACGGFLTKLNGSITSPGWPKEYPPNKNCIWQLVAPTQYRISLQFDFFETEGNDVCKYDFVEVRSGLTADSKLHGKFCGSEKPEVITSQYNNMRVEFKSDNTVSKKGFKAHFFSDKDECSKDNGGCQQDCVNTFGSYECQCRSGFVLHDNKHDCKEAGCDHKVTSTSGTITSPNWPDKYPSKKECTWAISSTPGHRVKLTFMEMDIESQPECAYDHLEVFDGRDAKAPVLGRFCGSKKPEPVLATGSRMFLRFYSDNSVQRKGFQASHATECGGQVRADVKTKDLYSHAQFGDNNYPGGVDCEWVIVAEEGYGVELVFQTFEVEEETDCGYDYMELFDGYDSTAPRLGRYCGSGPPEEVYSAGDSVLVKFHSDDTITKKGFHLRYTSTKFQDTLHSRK
- test name: C-Proteinase IC50 assay, fluorogenic peptide
- Format: biochemical
- condition details: 50 μM fluorogenic peptide, pH 7.6, 4 hours at 37° C., fluorescence, read-out: C-Proteinase Inhibitor IC50
readout name: IC50

These solved cases illustrate the format of a correct answer.
>  <compound>
O=C(CSCC1C(=O)N(C23CC4CC(CC(C4)C2)C3)C(=O)N1Cc1ccccn1)NO (stereo not shown) [Compound 199]

>  <IC50>
0.29 µM

$$$$
>  <compound>
O=C(CCCC1C(=O)N(C23CC4CC(CC(C4)C2)C3)C(=O)N1CC1CC2C=CC1C2)NO (stereo not shown) [Compound 128]

>  <IC50>
0.4 µM

$$$$
>  <compound>
O=C(CCCC1C(=O)N(C23CC4CC(CC(C4)C2)C3)C(=O)N1CC1=COCCC1)NO (stereo not shown) [Compound 192]

>  <IC50>
0.21 µM

$$$$

// switching to the query compound
Asked: Any idea what IC50 was measured for COc1ccc(O)c(CN2C(=O)N(C34CC5CC(CC(C5)C3)C4)C(=O)C2CCCC(=O)NO)c1 (stereo not shown) [Compound 139] ?
Given back: 0.26 µM
